Taken from patent US9371331B2.

Test system: H3K27me3 mark in HeLa cells
Test: H3K27me3 MSD Hela Assay
Format: cell-based
Conditions: Homo sapiens; HeLa cells, MSD, 96 hours; read-out: H3K27me3_MSD_HeLa_ (EC50)
I'd be grateful if you could share measured EC50 for these entries.

Give the measured EC50 of Cc1cc(C)c(COC(=O)c2c(C)n(C3CCc4ccccc43)c3ncccc23)c(=O)[nH]1 (racemic) .
0.4 to 2 µM

Give the measured EC50 of Cc1cc(C)c(CNC(=O)c2c(C)n(C(C)CS(C)(=O)=O)c3ncccc23)c(=O)[nH]1 (racemic) .
2 to 10 µM

Give the measured EC50 of "Cc1cc(C)c(CNC(=O)c2c(C)n([C@H](C)c3ccccc3)c3nc(N4CCNCC4)ncc23)c(O)n1" .
> 10 µM

Give the measured EC50 of Cc1cc(C)c(CNC(=O)c2c(C)n(C(C)Cn3cnc4ccccc43)c3ncccc23)c(=O)[nH]1 (racemic) .
2 to 10 µM

Give the measured EC50 of COc1cc(C)[nH]c(=O)c1CNC(=O)c1c(C)n(C(C)c2cccc(C(N)=O)c2)c2ncccc12 (racemic) .
2 to 10 µM

Give the measured EC50 of "Cc1ccc(C)c(-n2c(C)c(C(=O)NCc3c(C)cc(C)[nH]c3=O)c3ccccc32)c1" .
2 to 10 µM

Give the measured EC50 of COCC(C)n1c(C)c(C(=O)NCc2c(C)cc(C)[nH]c2=O)c2scnc21 (racemic) .
2 to 10 µM
